Biological target: T1, BMP-12 (UniProt Q7Z4P5 322-450, limits assumed)
T1 construct: also called BMP12/GDF7
T1 sequence (looked up): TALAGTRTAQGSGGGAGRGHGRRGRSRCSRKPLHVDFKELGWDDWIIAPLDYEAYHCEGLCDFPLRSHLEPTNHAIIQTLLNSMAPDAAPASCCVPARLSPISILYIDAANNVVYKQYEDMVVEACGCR
Assay: peptide resin, filter plate; load 2: 50 mM Acetic Acid, 0.1 M NaCl, pH 4.0
No end group written: not given here.
Task for the reader: assign each of the following binders its reported Flow-through conc.
Report as a plain number; the unit mg/mL is understood.

Ask: Flow-through conc for Ac-LYVSDVGWNDWIVK (not fully specified (residue 3); printed as Ac-LYV**SDVGWNDWIVK; also: ** after V3 not explained) [BMP2 C-trunc_2 peptide 746] ?
Reply: 0.052

Ask: Flow-through conc for Ac-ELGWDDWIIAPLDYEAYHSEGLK [BMP12 N-trun_1S peptide 749] ?
Reply: 0.05

Ask: Flow-through conc for Ac-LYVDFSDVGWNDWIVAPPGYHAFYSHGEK [BMP2 Full peptide 747] ?
Reply: 0.029

Ask: Flow-through conc for Ac-VAPPGYHAFYSHGEK [BMP2 N-trunc_2 peptide 745] ?
Reply: 0.41

Ask: Flow-through conc for Ac-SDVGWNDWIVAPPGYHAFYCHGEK [BMP2 N-trun peptide 750] ?
Reply: 0.164

Ask: Flow-through conc for Ac-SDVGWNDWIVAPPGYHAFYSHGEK [BMP2 N-trun 1S peptide 751] ?
Reply: 0.156

Ask: Flow-through conc for Ac-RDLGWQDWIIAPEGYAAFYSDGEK [BMP5 peptide 748] ?
Reply: 0.023

src = patent US7754689B2
